B1: glmS ribozyme (parent)
chain: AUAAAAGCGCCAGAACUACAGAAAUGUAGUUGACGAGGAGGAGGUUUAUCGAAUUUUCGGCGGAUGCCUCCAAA

variants of: B1; test: self-cleavage kobs at 160 uM GlcN6P; higher = faster cleavage; RNA array; details: with glucosamine-6-phosphate
Variants at the floor of the assay were thinned out.
MEASURED_METRIC: self-cleavage kobs at 160 uM GlcN6P

The examples below pair each entry with its known result.
{"columns": ["SEQUENCE_ENTRY", "self-cleavage kobs at 160 uM GlcN6P"],
 "data": [
  ["AUAAAAGCUCCAGAACUACAGAAAUGUAGUUGACGAGGAGGAGGUUUGUCGAAUUUUCGGCGGAUGCCUCCAAA [G9U A48G]", "< 1e-05 s⁻¹"],
  ["AUAAAAGCGCCAGAACUACAGAAAUGUAGUUGACGAGGAGGAGGGUUAUCGAAUUUUCGGCGGAUGCCUCCAAA [U45G]", "0.000679 s⁻¹"],
  ["AUAAAAGCGCCUGAACUACAGAAAUGUAGUUGACGAGGAGGAGGUUUAUCGAAUUUUCGGCGGAUGCCUCCAAA [A12U]", "0.00899 s⁻¹"],
  ["AUAAAAACGCCAGAACUACAGAAAUGUAGUUGAAGAGGAGGAGGUUUAUCGAAUUUUCGGCGGAUGCCUCCAAA [G7A C34A]", "< 1e-05 s⁻¹"],
  ["AUAAAAGCGCCAGAAUUACAGAAAUGUAGUUGACGAUGAGGAGGUUUAUCCAAUUUUCGGCGGAUGCCUCCAAA [C16U G37U G51C]", "< 1e-05 s⁻¹"]
]}

(Q) # query: self-cleavage kobs at 160 uM GlcN6P of entry AUAAAAUCGCCAGAACUACAGAAAUGUAGUUGACGAGGAGGAGGUUUAUCGAAUUUUCGGCGGACGCCUCCAAA [G7U U65C]
(A) < 1e-05 s⁻¹

(Q) What do we get for AUAAAAGCGCCAGAACUACAGAAAUGUAGUUGACGAGGAGGAAGUUUAUCGAAUUUUCGCCGGAUGCCUCCAAA [G43A G60C] ?
(A) < 1e-05 s⁻¹

(Q) What do we get for AUAAAAGCGCCAGAACUACAGAAAUGUAGUUGACGAGGAGGAGGUUUGCCGAAUUUUCGACGGAUGCCUCCAAA [A48G U49C G60A] ?
(A) < 1e-05 s⁻¹

(Q) What do we get for AUAAAAGCGCCAGAACUACAGAAAUGUAGUUGACGAGGAGAAGGCUUAUCGAAUUUUCGGCGGAUGCCUCCAAA [G41A U45C] ?
(A) 6.67e-05 s⁻¹

(Q) What do we get for AUAAAAGCGCCAGAACUACAGAAAUGUAGUUGACGAGGAGAAGGUUUAUCGAAUUUUCGGCGGAUGCCUCCAAA [G41A] ?
(A) 0.00036 s⁻¹

(Q) What do we get for AUAAAAGCGCCCGAACUACAGAAAUGUAGUUGACGAGGAGGAGGCUUAUCGAAUUUUCGGCGGAUGCCUCCAAA [A12C U45C] ?
(A) 5.84e-05 s⁻¹

(Q) What do we get for AUAAAAGCGCGAGAACUACAGAAAUGUAGUUGACGAGGAGGAGGUUUAUCGAAUUGUCGGCGGUUGCCUCCAAA [C11G U56G A64U] ?
(A) < 1e-05 s⁻¹

(Q) What do we get for AUAAAAGCGCGAGAACUACAGAAAUGUAGUUGCCGAGGAGGAGGUUUAUCGAAUUUUCGGCGGAUGCCUCCAAA [C11G A33C] ?
(A) < 1e-05 s⁻¹

(Q) What do we get for AUAAAAGCGCCAGAACUACAGAAAUGUAGUUGACGAGGCGGAGGUUUACCGAAUUUUCGGCGGAUGCCUCCAAA [A39C U49C] ?
(A) < 1e-05 s⁻¹

Reference for the values: the supplement of paper PMC7125110
